- experimental-system: recombinant human mGluR2 (Homo sapiens (Human), UniProt Q14416)
- Sequence (Q14416 19-872): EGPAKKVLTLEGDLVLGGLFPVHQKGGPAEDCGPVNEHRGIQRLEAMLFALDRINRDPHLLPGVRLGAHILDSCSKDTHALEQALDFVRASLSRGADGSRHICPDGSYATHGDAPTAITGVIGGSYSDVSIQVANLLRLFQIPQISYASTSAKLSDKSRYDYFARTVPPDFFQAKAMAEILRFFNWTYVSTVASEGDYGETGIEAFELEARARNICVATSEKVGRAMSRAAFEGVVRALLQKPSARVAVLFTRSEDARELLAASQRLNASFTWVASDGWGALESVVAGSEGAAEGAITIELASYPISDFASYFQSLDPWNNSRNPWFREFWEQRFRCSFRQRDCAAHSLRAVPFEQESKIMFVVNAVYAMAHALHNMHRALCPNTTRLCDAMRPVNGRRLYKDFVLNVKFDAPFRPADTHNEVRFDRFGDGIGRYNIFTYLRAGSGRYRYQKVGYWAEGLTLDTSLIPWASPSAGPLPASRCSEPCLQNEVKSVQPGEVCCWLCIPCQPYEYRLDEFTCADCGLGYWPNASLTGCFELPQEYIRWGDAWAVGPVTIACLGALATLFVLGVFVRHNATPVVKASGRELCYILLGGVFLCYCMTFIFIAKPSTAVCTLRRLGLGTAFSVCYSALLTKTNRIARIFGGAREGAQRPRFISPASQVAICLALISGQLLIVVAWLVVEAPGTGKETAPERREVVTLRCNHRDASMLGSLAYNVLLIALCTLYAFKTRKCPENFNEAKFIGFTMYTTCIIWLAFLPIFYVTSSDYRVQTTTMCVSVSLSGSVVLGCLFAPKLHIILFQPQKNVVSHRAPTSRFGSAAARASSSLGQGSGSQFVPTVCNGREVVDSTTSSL
- test-details: FLIPR Ca2+ mobilization antagonist assay in CHO dhfr- cells expressing human mGluR2 and Gα16
- particulars: antagonist response after addition of 2,500 nM glutamate, Fluo-4 AM, FLIPR384
pIC50: −log10 of the molar value.

>  <molecule>
NC(=O)c1cc(-c2ccc(F)cc2)c2c(n1)CN(C[C@@H]1CCN[C@H](C(F)(F)F)C1)CC2

>  <experimental-system>
recombinant human mGluR2 (Homo sapiens (Human), UniProt Q14416)

>  <pIC50>
7.01

$$$$
>  <molecule>
NC(=O)c1cc(-c2ccc(Cl)cc2F)c2c(n1)CN(Cc1cc(C(F)(F)F)ncn1)CC2

>  <experimental-system>
recombinant human mGluR2 (Homo sapiens (Human), UniProt Q14416)

>  <pIC50>
8.00

$$$$
>  <molecule>
Cn1cncc1CN1CCc2c(-c3ccc(Cl)cc3F)cc(C(N)=O)nc2C1

>  <experimental-system>
recombinant human mGluR2 (Homo sapiens (Human), UniProt Q14416)

>  <pIC50>
7.85

$$$$
>  <molecule>
NC(=O)c1cc(-c2ccc(F)cc2F)c2c(n1)CN(CC(O)c1ccccc1)CC2 (racemic) [Example 8-1B]

>  <experimental-system>
recombinant human mGluR2 (Homo sapiens (Human), UniProt Q14416)

>  <pIC50>
7.90

$$$$
>  <molecule>
Cc1nonc1CN1CCc2c(-c3ccc(F)cc3F)cc(C(N)=O)nc2C1

>  <experimental-system>
recombinant human mGluR2 (Homo sapiens (Human), UniProt Q14416)

>  <pIC50>
8.12

$$$$
>  <molecule>
NC(=O)c1cc(-c2cnn(C(F)F)c2)c2c(n1)CN(Cc1ccnc(C3CC3)c1)CC2

>  <experimental-system>
recombinant human mGluR2 (Homo sapiens (Human), UniProt Q14416)

>  <pIC50>
7.97

$$$$
>  <molecule>
Cc1cn(-c2cc(C(N)=O)nc3c2CCN(Cc2ccnc(C(F)(F)F)c2)C3)nc1C

>  <experimental-system>
recombinant human mGluR2 (Homo sapiens (Human), UniProt Q14416)

>  <pIC50>
7.37

$$$$
>  <molecule>
COc1cc(CN2CCc3c(-c4ccc(Cl)cc4F)cc(C(N)=O)nc3C2)ccn1

>  <experimental-system>
recombinant human mGluR2 (Homo sapiens (Human), UniProt Q14416)

>  <pIC50>
7.80

$$$$
>  <molecule>
Cc1ncc(-c2cc(C(N)=O)nc3c2CCN(Cc2ccnn2C)C3)s1

>  <experimental-system>
recombinant human mGluR2 (Homo sapiens (Human), UniProt Q14416)

>  <pIC50>
6.92

$$$$
>  <molecule>
CS(=O)(=O)c1cccc(CN2CCc3c(-c4ccccc4F)cc(C(N)=O)nc3C2)c1

>  <experimental-system>
recombinant human mGluR2 (Homo sapiens (Human), UniProt Q14416)

>  <pIC50>
7.32

$$$$

----------
The entries below are paired with their reported pIC50.
- experimental-system: recombinant human mGluR2 (Homo sapiens (Human))
- test-details: FLIPR Ca2+ mobilization antagonist assay in CHO dhfr- cells expressing human mGluR2 and Gα16
- particulars: antagonist response after addition of 2,500 nM glutamate, Fluo-4 AM, FLIPR384
pIC50: −log10 of the molar value.

>  <compound>
NC(=O)c1cc(-c2ccc(F)cc2)c2c(n1)CN(CCc1cccnc1N)CC2 [Example 1-4]

>  <pIC50>
7.08

$$$$
>  <compound>
Cc1csc(-c2cc(C(N)=O)nc3c2CCN(Cc2ccnc(C(F)(F)F)c2)C3)n1 [Example 6-2]

>  <pIC50>
5.94

$$$$
>  <compound>
COc1cc(F)ccc1-c1cc(C(N)=O)nc2c1CCN(Cc1ccnc(C3CC3)c1)C2 [Example 2-10]

>  <pIC50>
7.39

$$$$
>  <compound>
NC(=O)c1cc(-c2ccc(Cl)cc2F)c2c(n1)CN(Cc1cccnc1)CC2 [Example 10-3]

>  <pIC50>
7.92

$$$$
>  <compound>
CC1(C)CC(O)(CN2CCc3c(-c4ccc(F)cc4F)cc(C(N)=O)nc3C2)CCO1 (single isomer, unassigned) [Example 14-2B]

>  <pIC50>
7.57

$$$$
>  <compound>
NC(=O)c1ccc(CN2CCc3c(-c4ccc(F)cc4)cc(C(N)=O)nc3C2)cc1 [Example 2-3]

>  <pIC50>
6.93

$$$$
>  <compound>
CC1CCCN(c2cc(C(N)=O)nc3c2CCN(Cc2ccnc(C(F)(F)F)c2)C3)C1 (single isomer, unassigned) [Example 5-5B]

>  <pIC50>
7.89

$$$$
>  <compound>
CC1(C)CC(CN2CCc3c(-c4ccc(F)cc4F)cc(C(N)=O)nc3C2(C)C)CCO1 (racemic) [Example 1-23B]

>  <pIC50>
7.55

$$$$
>  <compound>
Cc1ccc(-c2cc(C(N)=O)nc3c2CCN(Cc2ccnn2C(C)C)C3)c(F)c1 [Example 1-12]

>  <pIC50>
8.00

$$$$
>  <compound>
NC(=O)c1cc(-c2cnn(C(F)F)c2)c2c(n1)CN(Cc1ccnc(C(F)(F)F)c1)CC2 [Example 2-5]

>  <pIC50>
7.52

$$$$
>  <compound>
NC(=O)c1cc(-n2ccc(C(F)(F)F)n2)c2c(n1)CN(Cc1ccnc(C(F)(F)F)c1)CC2 [Example 2-19]

>  <pIC50>
7.21

$$$$
>  <compound>
Cc1noc(CN2CCc3c(-c4ccc(Cl)cc4F)cc(C(N)=O)nc3C2)n1 [Example 9-5]

>  <pIC50>
7.90

$$$$
>  <compound>
CC1(C)CC(F)(CN2CCc3c(-c4ccc(F)cc4F)cc(C(N)=O)nc3C2)CO1 (single isomer, unassigned) [Example 14-1B]

>  <pIC50>
7.75

$$$$
>  <compound>
COc1cc(C(N2CCc3c(-c4cnn(C)c4)cc(C(N)=O)nc3C2)C(F)(F)F)ccn1 (racemic) [Example 3-2A]

>  <pIC50>
8.02

$$$$
>  <compound>
NC(=O)c1cc(N2CCC(F)(F)CC2)c2c(n1)CN(Cc1ccnc(C(F)(F)F)n1)CC2 [Example 12-1]

>  <pIC50>
7.39

$$$$
